System: RPMI-8226
Assay text: NCI tumour cell line growth inhibition, 48 h
Active and inactive are the calls of the source. Rule as the data show it: active = GI50 up to about 1.1 µM and inactive = higher.

Compound	GI50
CP(C)C.[Ag][I]	> 100 µM (inactive)
O=C(/C=C/c1ccccc1)CCN1CCCCC1	14.7 µM (inactive)
CN(O)C(=O)/C=C/c1ccc(OCc2cccc(Cl)c2)cc1	27.5 µM (inactive)
NN/C(=N\c1ccc(Cl)cc1)NS(=O)(=O)c1ccc(S(=O)(=O)c2ccccc2)s1	21.2 µM (inactive)
CN(Cc1c2ccccc2cc2ccccc12)S(=O)(=O)c1ccc(-c2c3nc(c(-c4ccc(S(=O)(=O)N(C)Cc5c6ccccc6cc6ccccc56)cc4)c4ccc([nH]4)c(-c4ccc(S(=O)(=O)N(C)Cc5c6ccccc6cc6ccccc56)cc4)c4nc(c(-c5ccc(S(=O)(=O)N(C)Cc6c7ccccc7cc7ccccc67)cc5)c5ccc2[nH]5)C=C4)C=C3)cc1	> 100 µM (inactive)
CC(C)(C)C(=O)OC12/C(=N/O)CCCCCC1c1ccccc12 (stereo not drawn)	11.9 µM (inactive)
O=C(NS(=O)(=O)c1ccccc1)C(Cc1ccccc1)C(Cc1ccccc1)C(=O)NS(=O)(=O)c1ccccc1 (stereo not drawn)	> 100 µM (inactive)
CCOC(CI)O[C@@H]1C=C[C@H](OC(C)=O)C1 (stereo partly drawn)	> 100 µM (inactive)

###

System: SK-MEL-2
Assay text: NCI tumour cell line growth inhibition, 48 h
Active and inactive are the calls of the source. No stated cut-off is given here; in the data, active = GI50 up to about 1.1 µM and inactive = higher.
Some compounds, each annotated with its measured GI50.

Compound	GI50
CCOc1cc2cnc3c4cc(OC)c(OC)cc4ccc3c2cc1OC	69 µM (inactive)
N#C/C(C(=S)NCc1ccccc1)=C(/N)N1CCCC1	> 100 µM (inactive)
CSc1nc2c(c(=O)[nH]1)N=C(c1ccc(Cl)cc1)CC(c1ccccc1)N2 (centres undefined)	14.1 µM (inactive)
CCOC(=O)CCC(NC(=O)c1ccc(OCc2nc3ccccc3n3cccc23)cc1)C(=O)OCC (centres undefined)	> 100 µM (inactive)
CCOC(=O)C(=O)Nc1c(C(C)C)cccc1C(C)C	> 100 µM (inactive)
CC(=O)OC1C(CCl)OC(N=[N+]=[N-])C(OC(C)=O)C1OC(C)=O (centres undefined)	> 100 µM (inactive)
C=C(C)C1Cc2c(cc(OC)c3c(=O)c4cccc(O)c4oc23)O1 (centres undefined)	18.6 µM (inactive)
O=C(O)c1c[nH]c2c(ccc3ncccc32)c1=O	> 100 µM (inactive)
CC(C)(C)OC(=O)NNCC(O)COc1ccccc1 (centres undefined)	> 100 µM (inactive)
O=C1CC2c3ccccc3CCC2c2ccccc21 (centres undefined)	16.8 µM (inactive)
O=C(c1ccccc1)c1cc(Cl)ccc1NCn1nnc2ccccc21	29 µM (inactive)
C/C(COc1ccccc1)=N\NC(N)=S	> 100 µM (inactive)
COc1ccc(C2C3CCc4ccccc4C3=NN2S(=O)(=O)c2cccc(C(=O)O)c2OC)cc1 (centres undefined)	15.7 µM (inactive)
Cc1ccc(C(O)(c2ccc(C)cc2)c2ccccn2)cc1	> 100 µM (inactive)
O=C(Oc1cncc(Cl)c1)c1cc2ccccc2sc1=O	24.7 µM (inactive)
COC(=O)N/N=C(\C)CC(=O)Nc1cccc([N+](=O)[O-])c1	> 100 µM (inactive)
Cc1ccc2[nH]c3c(c2c1)CCC/C3=N/N=C(N)N	1.69 µM (inactive)
CCOC(=O)C1=C(NC(C)(C)C)OC/C1=N\NC(=O)Cc1ccccc1	> 100 µM (inactive)
COC(=O)c1cc(O)nc(O)n1	> 100 µM (inactive)
CCCCCN(CCCCC)C(=O)[C@H](CCC(=O)OCc1ccccc1)NC(=O)c1cc2ccccc2[nH]1	> 100 µM (inactive)
CCOC(=O)c1ccc(NCC#CCN2CCCCC2)cc1	> 100 µM (inactive)
CN(C)CC1CCCC/C1=N/O (centres undefined)	> 100 µM (inactive)
O=S1(=O)c2ccccc2N(O)C2=NCCN21	> 100 µM (inactive)
CC(C)=CCC/C(C)=C/CC/C(C)=C/Cc1c(O)c2ccccc2oc1=O	> 100 µM (inactive)
